Each entry below carries its reported remaining at 4 h, 1 µM.
Tested on: Pancreatin
protocol_summary: Protease stability in simulated intestinal fluid (Pancreatin-SIF, FaSSIF)
Type: in vitro ADME
experimental_parameters: 240 min, 1 μM peptide, 37° C., read-out: FaSSIF 240 (min), remaining percent of peptide
Procedure: Studies were carried out in simulated intestinal fluid (SIF) and simulated gastric fluid (SGF) to evaluate gastric stability of the peptide compounds disclosed herein. […] To 76 μL of the Pepsin-SGF buffer, 4 μL of the 20 µM peptide stock solution was added and incubated at 37° C. […] The samples were centrifuged for 20 minutes and an aliquot of the supernatant 100 μL were transferred to a LoBind-MTP plate and analyzed by LCMS/MS. […]
Starred links: 1 amine or outer side, 2 acyl side, 3 side chain; linkers in the order of their positions; H or OH if unused. Positions of bridges follow the written chain, without caps; N, C: chain ends. Non-standard residues stand in square brackets, D forms with d. Residues, ends and D or L forms follow the SMILES beside them. *: point of attachment. X3 = CN(CCCCC(=O)N[C@@H](CS[*:2])C(=O)[*:1])[*:3]; 2Nal = N[C@@H](Cc1ccc2ccccc2c1)C(=O)O; AEF = NCCOc1ccc(C[C@H](N)C(=O)O)cc1; X4 = CN(CCCCCC(=O)[*:2])[*:1]; αMeL = CC(C)C[C@](C)(N)C(=O)O; Me2NCH2CH2 = CN(C)CC*
Write the answer as a number in %, unit excluded.

[
  {
    "compound": "CC(C)C[C@@H](NC(=O)[C@H](CC(N)=O)NC(=O)[C@@H]1CC(=O)N(C)CCCCCC(=O)N[C@H]2CSSC[C@H](NC(=O)[C@H](CCC(N)=O)NC(=O)[C@H](Cc3c[nH]c4ccccc34)NC(=O)[C@H]([C@@H](C)O)NC(=O)[C@H](CC(N)=O)NC2=O)C(=O)N[C@@H](Cc2ccc(OCCN(C)C)cc2)C(=O)N[C@@H](Cc2ccc3ccccc3c2)C(=O)N[C@@](C)(CC(C)C)C(=O)N1)C(N)=O [compound 40] ([X4]CNTWQCY(Me2NCH2CH2)[2Nal][αMeL]DN[dL]-NH2; disulfide 2-7; lactam N-11)",
    "unit_text": "%",
    "remaining at 4 h, 1 µM": 54
  }
]

// next entry
# lookup: remaining at 4 h, 1 µM of CC(=O)N[C@H]1CCCCNC(=O)[C@@H]2CSSC[C@H](NC(=O)[C@H](CCC(N)=O)NC(=O)[C@H](Cc3c[nH]c4ccccc34)NC1=O)C(=O)N[C@@H](Cc1ccc(OCCN)cc1)C(=O)N[C@@H](Cc1ccc3ccccc3c1)C(=O)N[C@@](C)(CC(C)C)C(=O)N[C@H](C(=O)N[C@@H](C)C(=O)N[C@H](CC(C)C)C(N)=O)CCC(=O)N(C)CCCCC(=O)N2 [compound 44] (Ac-KWQC[AEF][2Nal][αMeL]EA[dL]-NH2; linker 1-4-8 via X3)
59
